# TESTED SYSTEM: S1P1 (Homo sapiens (Human), UniProt P21453)
# Sequence (P21453 whole entry, species assumed): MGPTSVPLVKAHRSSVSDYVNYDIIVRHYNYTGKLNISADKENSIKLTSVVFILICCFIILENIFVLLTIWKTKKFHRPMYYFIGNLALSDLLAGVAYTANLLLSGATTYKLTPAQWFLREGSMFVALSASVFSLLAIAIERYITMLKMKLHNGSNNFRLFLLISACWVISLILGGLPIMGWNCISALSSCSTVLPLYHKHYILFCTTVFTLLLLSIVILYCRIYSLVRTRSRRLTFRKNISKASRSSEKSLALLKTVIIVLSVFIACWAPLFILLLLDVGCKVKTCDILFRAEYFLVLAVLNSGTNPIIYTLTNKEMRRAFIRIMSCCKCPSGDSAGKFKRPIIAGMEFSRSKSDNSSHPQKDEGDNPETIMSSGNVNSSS
# PROCEDURE SUMMARY: 35S-GTPγS binding assay, S1P1 membranes
# Format: biochemical
# ASSAY CONTEXT: membranes from CHO cells expressing S1P1; read-out: S1P1 GTPyS EC50
EXPERIMENTAL READOUT: pEC50
Friendly reminder that pEC50 comes from taking -log10 of the concentration in mol/L.

COMPOUND | TESTED SYSTEM | pEC50
COCCNS(=O)(=O)c1ccc(NC(=O)c2cc(N(CC3CC3)C3CCCCC3)ncn2)c(C)c1 [Example 1-107] | S1P1 (Homo sapiens (Human), UniProt P21453) | 7.72
CN(c1cc(C(=O)Nc2ccc3c(c2)CC(=O)N3)ncn1)C1CCCCC1 [Example 1-41] | S1P1 (Homo sapiens (Human), UniProt P21453) | 5.75

QUERY: Please report the recorded pEC50 for CCCN(CC1CC1)c1cc(C(=O)Nc2ccc(CN3CCC3)cc2C)ncn1 [Example 1-154] .
RESULT: 6.09

QUERY: Please report the recorded pEC50 for CCCN(CC1CC1)c1cc(C(=O)Nc2cccc(-n3ccnc3C)c2)ncn1 [Example 1-144] .
RESULT: 5.81

QUERY: Please report the recorded pEC50 for CCNS(=O)(=O)c1ccc(NC(=O)c2cc(N(C)C3CCCCC3)ncn2)cc1 [Example 1-31] .
RESULT: 5.70

QUERY: Please report the recorded pEC50 for NCc1ccc(NC(=O)c2cc(N(CC3CC3)C3CCCCC3)ncn2)cc1 [Example 1-48] .
RESULT: 7.41

QUERY: Please report the recorded pEC50 for Cc1cc(O)ccc1NC(=O)c1cc(NC2CCCCC2C)ncn1 (centres unmarked) [Example 1-24] .
RESULT: 5.77

QUERY: Please report the recorded pEC50 for O=C(Nc1ccc(CN2CCNCC2)cc1)c1cc(N(CC2CC2)C2CCCCC2)ncn1 [Example 1-78] .
RESULT: 6.48

###

# TESTED SYSTEM: S1P1 (Homo sapiens (Human), UniProt P21453)
# PROCEDURE SUMMARY: 35S-GTPγS binding assay, S1P1 membranes
# ASSAY CONTEXT: membranes from CHO cells expressing S1P1; read-out: S1P1 GTPyS EC50
Let's look at some molecules and their measured EC50.
Value expressed in nM; do not type the unit.

Some solved entries appear below for comparison.
MOLECULE | UNITS OF MEASURE | EC50
CN(c1cc(C(=O)Nc2ccc3[nH]ncc3c2)ncn1)C1CCCCC1 | nM | 418
CCCN(CC1CC1)c1cc(C(=O)Nc2ccc(Cn3cncn3)cc2)ncn1 | nM | 55

QUERY: Please report the recorded EC50 for Cc1cc(S(N)(=O)=O)ccc1NC(=O)c1cc(N(CC2CC2)C2CCCCC2)ncn1 .
RESULT: 2

QUERY: Please report the recorded EC50 for O=C(Nc1ccc(S(=O)(=O)NCC(O)CO)cc1)c1cc(N(CC2CC2)C2CCCCC2)ncn1 (centres unmarked) .
RESULT: 60

QUERY: Please report the recorded EC50 for CN(c1cc(C(=O)Nc2ccc(S(=O)(=O)NCC(O)CO)cc2)ncn1)C1CCCCC1 (centres unmarked) .
RESULT: 1520

QUERY: Please report the recorded EC50 for COCCN(CCOC)c1cc(C(=O)Nc2ccc3[nH]ncc3c2)ncn1 .
RESULT: 1110

QUERY: Please report the recorded EC50 for NC(=O)c1ccc(NC(=O)c2cc(N(CC3CC3)C3CCCCC3)ncn2)cc1 .
RESULT: 73

QUERY: Please report the recorded EC50 for CCCN(CC1CC1)c1cc(C(=O)Nc2ccc3c(c2)CCNC3)ncn1 .
RESULT: 145

QUERY: Please report the recorded EC50 for COCCNS(=O)(=O)c1ccc(NC(=O)c2cc(N(C)C3CCCCC3)ncn2)cc1 .
RESULT: 2280

QUERY: Please report the recorded EC50 for CCC(NCc1ccc(NC(=O)c2cc(N(CC3CC3)C3CCCCC3)ncn2)cc1)C(=O)OC (centres unmarked) .
RESULT: 2160

QUERY: Please report the recorded EC50 for Cc1cc(O)ccc1NC(=O)c1cc(N(CC2CC2)C2CCCCC2)ncn1 .
RESULT: 24.6

QUERY: Please report the recorded EC50 for CCCN(CC1CC1)c1cc(C(=O)Nc2ccc(CS(=O)(=O)CCC(=O)O)cc2)ncn1 .
RESULT: 3120

QUERY: Please report the recorded EC50 for O=C(Nc1ccncc1)c1cc(N(CC2CC2)C2CCCCC2)ncn1 .
RESULT: 107

QUERY: Please report the recorded EC50 for CCCN(CC1CC1)c1cc(C(=O)Nc2cccc(Cn3cncn3)c2)ncn1 .
RESULT: 1120

QUERY: Please report the recorded EC50 for CCCN(CC1CC1)c1cc(C(=O)Nc2ccc(CS(=O)(=O)CCC(=O)OCC)cc2)ncn1 .
RESULT: 5050

QUERY: Please report the recorded EC50 for O=C(Nc1ccc(O)c(F)c1)c1cc(NC2CCCCC2)ncn1 .
RESULT: 1580

QUERY: Please report the recorded EC50 for CCCN(CC1CC1)c1cc(C(=O)Nc2ccc3nn(CC(N)=O)cc3c2)ncn1 .
RESULT: 6350

Source listed as patent US9150519B2.
